system: Streptococcus sp.; experiment: In vitro antibacterial evaluation: minimum inhibitory concentration (MIC), broth dilution method; format: cell-based; conditions: broth dilution, inoculum 5×10^5 CFU/mL, 18 hours at 35° C.
OBSERVABLE: MIC Streptococcus agalactiae (GC 4564)

Worked examples, 3 compounds total:
COc1ccc(Oc2cccc(C3OCC4OC(OC5C(CO)OC(Oc6ccc(CC7NC(=O)C(C(C)c8ccccc8)NC(=O)CNC(=O)C(CO)NC(=O)C(C(O)C8CNC(=N)N8C8OC(CO)C(O)C(O)C8O)NC(=O)C(C(O)C8CNC(=N)N8)NC7=O)cc6)C(O)C5O)C(O)C(O)C4O3)c2)cc1 (stereo not shown) [Example 180]	<0.06 µg/mL
CC(c1ccc(Cl)cc1)C1NC(=O)CNC(=O)C(CO)NC(=O)C(C(O)C2CNC(=N)N2C2OC(CO)C(O)C(O)C2O)NC(=O)C(C(O)C2CNC(=N)N2)NC(=O)C(Cc2ccc(OC3OC(CO)C(OC4OC5COC(C6CCCCC6)OC5C(O)C4O)C(O)C3O)cc2)NC1=O (stereo not shown) [Example 193]	<0.06 µg/mL
CC(c1ccccc1)C1NC(=O)CNC(=O)C(CO)NC(=O)C(C(O)C2CNC(=N)N2C2OC(CO)C(O)C(O)C2O)NC(=O)C(C(O)C2CNC(=N)N2)NC(=O)C(Cc2ccc(OC3OC(CO)C(OC4OC5COC6(CCCCC6C)OC5C(O)C4O)C(O)C3O)cc2)NC1=O (stereo not shown) [Example 204]	1 µg/mL

Q) For the compound shown here, N=C1NCC(C(O)C2NC(=O)C(CC3CCC(OC4OC(CO)C(OC5OC6COC7(OC6C(O)C5O)C5CC6CC(C5)CC7C6)C(O)C4O)CC3)NC(=O)C(CC3CCCCC3)NC(=O)CNC(=O)C(CO)NC(=O)C(C(O)C3CNC(=N)N3C3OC(CO)C(O)C(O)C3O)NC2=O)N1 (stereo not shown) [Example 222] , give the reported MIC Streptococcus agalactiae (GC 4564).
A) >64 µg/mL
